Examples of compounds with documented α7PAM (%) @ 10 μmol/L follow.
- target-of-assay: human α7 nAChR (Homo sapiens)
- Construct: expressed in transfected cells; host or cells: GH4C1 cells (rat pituitary, ATCC CCL-82.2)
- Sequence (P36544 23-502): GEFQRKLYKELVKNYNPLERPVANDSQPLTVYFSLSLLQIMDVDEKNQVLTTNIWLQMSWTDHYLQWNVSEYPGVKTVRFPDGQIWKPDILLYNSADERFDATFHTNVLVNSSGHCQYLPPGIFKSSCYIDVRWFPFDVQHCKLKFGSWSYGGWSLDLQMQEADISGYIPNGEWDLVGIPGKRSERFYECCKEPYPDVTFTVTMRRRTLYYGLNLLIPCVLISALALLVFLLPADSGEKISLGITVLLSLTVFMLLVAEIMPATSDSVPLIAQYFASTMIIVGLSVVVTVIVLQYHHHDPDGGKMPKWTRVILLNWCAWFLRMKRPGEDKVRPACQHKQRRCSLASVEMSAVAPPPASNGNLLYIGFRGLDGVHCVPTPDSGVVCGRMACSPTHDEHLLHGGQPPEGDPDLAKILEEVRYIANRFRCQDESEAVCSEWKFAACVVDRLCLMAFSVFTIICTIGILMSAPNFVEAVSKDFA
- assay-method-text: Evaluation of PAM activity with human α7 nACh receptor stably expressing cells (aequorin luminescence, FDSS7000)
- Type: cell-based
- experimental-conditions: test compound 10 μmol/L; ACh at EC20; ratio of RLU (Max-Min) of test-compound wells to control wells; human α7 nAChR expressing GH4C1 cells
- Method: Evaluation of PAM Activity with Human α7 nACh Receptor Stably Expressing Cells (1) Human α7 nAChR stably expressing cells Human α7 nAChR stably expressing cells were generated and cultured. […] FDSS7000 (Hamamatsu Photonics) was used to detect the luminescence signal evoked by α7 nAChR stimulation. […] After the addition of ACh, the luminescence signal (the central wavelength: 465 nm) was measured for 138 seconds to calculate RLU (Max-Min). […]
experimental-endpoint: α7PAM (%) @ 10 μmol/L

[[record]]
compound = "Cc1ccc2c(cnn2C2CCN(C(=O)N[C@H]3CCCCC3(F)F)CC2)c1"
reported_value = "1064%"

[[record]]
compound = "O=C(NC1CCOCC1)N1CCC(n2ncc3cc(C(F)(F)F)ccc32)CC1"
reported_value = "340%"

[[record]]
compound = "Cc1ccc2c(cnn2C2CCN(C(=O)NC3CCC(F)(F)CC3)CC2)c1"
reported_value = "3399%"

[[record]]
compound = "COc1c(C(F)(F)F)ccc2c1cnn2C1CCN(C(=O)NC2CCC(OC)CC2)CC1 (centres unmarked)"
reported_value = "360%"

[[record]]
compound = "CCO[C@H]1CC[C@H](NC(=O)N2CCC(n3ncc4cc(C)ccc43)CC2)CC1"
reported_value = "1467%"

[[record]]
compound = "CCOc1cccc2c1cnn2C1CCN(C(=O)N[C@H]2CC[C@@H](OC)CC2)CC1"
reported_value = "200%"

[[record]]
compound = "COC(C)c1c(C)ccc2c1cnn2C1CCN(C(=O)NC2CCC(F)(F)CC2)CC1 (centres unmarked)"
reported_value = "860%"

[[record]]
compound = "O=C(NC1CCOCC1)N1CCC(n2ncc3c(OC(F)(F)F)cccc32)CC1"
reported_value = "380%"

[[record]]
compound = "COCc1nn(C2CCN(C(=O)NC3CCCCC3)CC2)c2ccc(C)cc12"
reported_value = "430%"

[[record]]
compound = "COc1ccc2c(cnn2C2CCN(C(=O)NC3CCC(F)(F)CC3)CC2)c1"
reported_value = "3749%"

[[record]]
compound = "CO[C@H]1CC[C@H](NC(=O)N2CCC(n3ncc4cc(C)ccc43)CC2)CC1"
reported_value = "1209%"

